molecular target: Protein deacetylase HDAC6 (Homo sapiens, UniProt Q9UBN7); test: Inhibition of recombinant human full length HDAC6 expressed in baculovirus infected Sf9 insect cells using RHKKAC as substrate incubated for 5 to 10 mins followed by substrate addition measured after 2 hrs by fluorescence assay
Sequence (Q9UBN7 whole entry): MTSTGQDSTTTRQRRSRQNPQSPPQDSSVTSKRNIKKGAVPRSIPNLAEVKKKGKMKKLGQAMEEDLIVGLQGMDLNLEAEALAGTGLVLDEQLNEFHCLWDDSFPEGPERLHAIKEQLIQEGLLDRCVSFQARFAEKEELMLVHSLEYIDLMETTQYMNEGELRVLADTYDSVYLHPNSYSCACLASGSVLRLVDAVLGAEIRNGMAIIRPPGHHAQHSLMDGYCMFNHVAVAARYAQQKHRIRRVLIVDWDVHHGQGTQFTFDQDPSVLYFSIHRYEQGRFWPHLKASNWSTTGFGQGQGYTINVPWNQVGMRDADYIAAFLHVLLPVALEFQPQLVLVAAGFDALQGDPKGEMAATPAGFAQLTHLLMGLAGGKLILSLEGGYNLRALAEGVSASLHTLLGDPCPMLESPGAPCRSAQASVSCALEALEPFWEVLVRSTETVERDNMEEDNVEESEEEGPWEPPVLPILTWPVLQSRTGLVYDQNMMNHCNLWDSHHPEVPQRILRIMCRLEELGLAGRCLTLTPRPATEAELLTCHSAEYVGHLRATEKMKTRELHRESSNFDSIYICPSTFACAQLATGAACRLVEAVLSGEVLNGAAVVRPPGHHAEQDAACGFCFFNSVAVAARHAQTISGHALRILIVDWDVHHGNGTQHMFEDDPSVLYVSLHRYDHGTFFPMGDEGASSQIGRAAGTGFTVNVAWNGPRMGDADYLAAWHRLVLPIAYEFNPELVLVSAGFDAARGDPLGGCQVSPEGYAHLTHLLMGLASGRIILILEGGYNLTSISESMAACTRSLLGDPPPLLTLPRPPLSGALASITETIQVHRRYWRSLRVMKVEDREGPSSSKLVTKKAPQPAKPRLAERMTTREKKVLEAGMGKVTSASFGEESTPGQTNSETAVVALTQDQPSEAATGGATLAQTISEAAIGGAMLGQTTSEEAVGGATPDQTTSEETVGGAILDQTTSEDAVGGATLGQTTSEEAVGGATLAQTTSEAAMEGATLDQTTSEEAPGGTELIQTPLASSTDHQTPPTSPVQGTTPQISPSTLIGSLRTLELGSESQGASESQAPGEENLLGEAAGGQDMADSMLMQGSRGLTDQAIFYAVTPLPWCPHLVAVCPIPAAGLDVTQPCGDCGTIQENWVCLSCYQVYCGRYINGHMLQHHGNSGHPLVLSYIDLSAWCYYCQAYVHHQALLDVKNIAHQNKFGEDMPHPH
pIC50: −log10 of the molar value.
Observed Property: pIC50

                           smiles_structure  observed_property  result
0  CCCCCCC(=O)Nc1ccc(-c2cc(C(=O)NCc3ccc(C(=O)NO)cc3)no2)cc1              pIC50  > 8.00
1  CC(C)(C)OC(=O)Nc1cccc(-c2cc(C(=O)NCc3ccc(C(=O)NO)cc3)no2)c1              pIC50  > 8.00
2  CCCCCCC(=O)Nc1cccc(-c2cc(C(=O)NCc3ccc(C(=O)NO)cc3)no2)c1              pIC50  > 8.00

Okay, now this compound:
Asked: # input compound: "CC(C)(C)OC(=O)Nc1ccc(-c2cc(C(=O)NCc3ccc(C(=O)NO)cc3)no2)cc1" ; wanted: its pIC50
Given back: > 8.00
